Data origin, for the record: the supplement of paper PMC9170038

# Test system: K4 kissing-loop RNA reporter
# Test Summary: apparent KD of K4 kissing-loop reporter; higher = weaker reporter binding
# Condition Label: Eterna round: R107; input ligand: theophylline 20 uM
Decision: apparent KD of K4 kissing-loop reporter >= 200 nM yields MET, all other cases yield NOT MET.

[[record]]
residues = "UUUUAAAUGUCUGAUACCAGAGAAAAUAUAUGUAGUGAUGUUAUAUACAAAUUAAAUAAGCUCCCUUGGCAGCAGUAUUAAUUUU [AstrosExc-TheB#10]"
assigned_class = "MET"

[[record]]
residues = "AUUAAUAACUGAGGAUAUCGUUUUACUGUAGUGAUGUUACAGAAAAUGCACAUUAUAAUUUCUAUUCGAGAAGGCAGAAUAAUUA [JR_ExcFMNB_Sub013]"
assigned_class = "NOT MET"

[[record]]
residues = "UGUAUGUGAUUUGAUACCAGACCAUCUUGUGAGAAGUGAGUGAUGUUUAUUUUGGUUUGGGUCCCUUGGCAGCAAAUCGCAUACU [KL-SSTheoB23]"
assigned_class = "MET"

[[record]]
residues = "CGAUGUUCCUGGGAUACCAGUCGGAGUCUCAGAGCUCGGAGUGAUGUUCUGGGAUGUUUCGGCCCUUGGCAGCUCUGGGACUCCC [#2 Exclusion - Theophylline B Attempt #23 (HarryS)]"
assigned_class = "MET"

[[record]]
residues = "AGUCCUAUGACGGCCGCCACUCCGGUUAUGAUUUGCCAAGUGAUGUUUGGGUAUCAGGCGAGGCGGAGGACCGGGUCGACCUGCC [theeternabot_exclusion_KL_Trp_B_18]"
assigned_class = "NOT MET"

[[record]]
residues = "UUCUCUCAGGCACGCGAGUGAUGUUCGCGGCGAGGACCGGUACGGCCGCCACUCGCGCCUGAGAGAGGUUAUCAAAGAUAGCCUU [whbob_SS_tryp_A]"
assigned_class = "NOT MET"


###

apparent KD of MS2 coat protein values by entry
# Tested on: MS2 coat protein
# Test Summary: apparent KD of MS2 coat protein; designed switch direction (-1 OFF switch, 1 ON switch): 1; higher = weaker reporter binding
# Condition Label: input ligand: FMN 200 uM
Observable: apparent KD of MS2 coat protein (nM)

[[record]]
residues = "GCCGUAUACAUGAGGAUCACCCAUGUUGACGCGAGAGUGGAUGAGGAUAUCGAUGGGUUUCCCGUCGAGAAGGCGUGGGUCGGC [JL SSNG3 3.00] (Eterna round: R96, puzzle: Same State NG 3)"
observable = "apparent KD of MS2 coat protein"
numeric_result = 49.8

[[record]]
residues = "GUUACAUGAGGAUCACCCAUGUAUGUGUGGGAGUAAGUGUCUUAGGAUAUCUAGUAAUUAAUUUAAGAGAAGGAAGAUUGUUGU [JMF's solution 54] (Eterna round: R96, puzzle: Same State NG 3)"
observable = "apparent KD of MS2 coat protein"
numeric_result = 133

[[record]]
residues = "CUAGGAGGAUGAGGAUAUGCAGAGGAUCACCCUGUAGAAGGCAAGAGAUGAGGAUAUGCAGAGGAUCACCCUGUAGAAGGCAAC [pwkr ssNG DX.1] (Eterna round: R96, puzzle: Same State NG 1)"
observable = "apparent KD of MS2 coat protein"
numeric_result = 307


###

# System: K4 kissing-loop RNA reporter
# Test Summary: apparent KD of K4 kissing-loop reporter; higher = weaker reporter binding
# Condition Label: Eterna round: R107; input ligand: tryptophan 2.4 mM
apparent KD of K4 kissing-loop reporter values by entry
Observable: apparent KD of K4 kissing-loop reporter

[[record]]
residues = "UUAUAUUUUAUAUUUAGAUGAUCUAUAGCACGAGGACCGGUACGGCCGCCACUCGAGUGAUGUUCGAGAGCUAUAGAUCAUCAUU [AK2.2 EXC Tryptophan A]"
target_or_test_system = "K4 kissing-loop RNA reporter"
result = "207 nM"

[[record]]
residues = "UGGAGUUGACGAAAAGUCAACUCCAGAGAAGGAGCGGACGAAAGUCCAGGUAGGUCGCUCACUACCAGUGAUGUUGGUACUUGAA"
target_or_test_system = "K4 kissing-loop RNA reporter"
result = "218 nM"

[[record]]
residues = "AGACUACUGACAGGAUAUAACAUAUUAGCUCGUAUACCAAAGGUAUACGAGCACCUUCUAGUGAUGUUAGAAGGGUCGGUAGUCA [Omei KL FMN B Exc B v1]"
target_or_test_system = "K4 kissing-loop RNA reporter"
result = "118 nM"

[[record]]
residues = "GCGCGCGGCGGAGGAUAUAGCCGGUGAUCCGAGAAAGUGAGUGAUGUUUACGGAGUUGAGGAUAUGUUAGAAGGCCGCCGCGCGC [abcdefghijklmnopqrstuvwx]"
target_or_test_system = "K4 kissing-loop RNA reporter"
result = "789 nM"

[[record]]
residues = "UUAUUAUAUUGUAAUGAUAUAGAAACCGAAGGAGCGACAUAAAAGUCAGGUAGGUCGCGGUGUACUCAGUGAUGUUGAGAGUAUU [JR_SSArginiA_Sub013]"
target_or_test_system = "K4 kissing-loop RNA reporter"
result = "100 nM"

[[record]]
residues = "AGAGUCAGACAAAAGUCUGGCUCAGCCGAAGGAGCGUCCGUAAGGACAGGUAGGUCGCGGCUAUUUGAGUGAUGUUUGGGUUCCU [KL-SSArg-A20]"
target_or_test_system = "K4 kissing-loop RNA reporter"
result = "212 nM"


###

# Tested on: K4 kissing-loop RNA reporter
# Test Summary: apparent KD of K4 kissing-loop reporter; higher = weaker reporter binding
# Condition Label: Eterna round: R107; input ligand: FMN 200 uM
Observable: apparent KD of K4 kissing-loop reporter (nM)

[[record]]
residues = "GUUGUCUACCAGAGGUGAUGUAUAGUAUCGCGAGGACCGGUACGGCCGCCACUCGUGAAGAGAAAGGAGUGAUGUUCCGUAAUGG [C10]"
numeric_result = 255

[[record]]
residues = "AUUAAUAACUGAGGAUAUCGUUUUACUGUAGUGAUGUUACAGAAAAUGCACAUUAUAAUUUCUAUUCGAGAAGGCAGAAUAAUUA [JR_ExcFMNB_Sub013]"
numeric_result = 110

[[record]]
residues = "AGCAAUAUCACGGCCGCCACUGAAUAUUGUUUUUAUAGUUAUAAAUCUUGCCAGUGAUGUUGGUUCAGGACCGGGUGAGUUAAUA [JR_SSTryptoB_Sub003]"
numeric_result = 572


###

# System: K4 kissing-loop RNA reporter;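 further: bound reporter read as fluorescence of individual clusters on recovered sequencing chips by microscopy, with normalized cluster intensities fitted with a binding model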
# Test Summary: apparent KD of K4 kissing-loop reporter; higher = weaker reporter binding
# Condition Label: Eterna round: R107; input ligand: tryptophan 2.4 mM
apparent KD of K4 kissing-loop reporter values by entry
Observable: apparent KD of K4 kissing-loop reporter (nM)

[[record]]
residues = "UGAUACCAGACGGCCGCCACUCCUAGUGAUGUUAGGAACCUAAAAUAGCAUGUCAAAGACAUGCGGAGGACCGGGUCUGGUAUCU [TrypBX 23 #SwitchBubble #Palindromic #StaticStem]"
numeric_result = 254

[[record]]
residues = "AAAUUCUUUUUUUUAUUUAACUUUUCAGAAGGAGCGUGGUAGUACACAGGUAGGUCGCUGAAUUUUAGACUAGUGAUGUUAGUUA [JR_SSArginiA_Sub008]"
numeric_result = 151

[[record]]
residues = "AUUUAAUUAACUGAUACCAGACUUAAUGUUUUGUAUAUUACUAGUGAUGUUAGUGAUUCUGUCCCUUGGCAGCAGUAUCUACUUA [JR_ExcTheophyB_Sub014]"
numeric_result = 117


###

# System: MS2 coat protein
# Test Summary: apparent KD of MS2 coat protein, switch OFF state (with FMN for OFF switches, without FMN for ON switches); designed switch direction (-1 OFF switch, 1 ON switch): -1; higher = weaker reporter binding
# Condition Label: FMN input: 0 or 200 uM; Eterna round: R93 (includes R88 designs)
Observable: apparent KD of MS2 coat protein (nM)

[[record]]
residues = "AAAAAAAGAGGAUAUACGUACAUGUCGAAAGACGUGAAGGGACAUGAGGAUCACCCAUGUAGAAGGUUUAAAAA [Mat - Exclusion 2 - JL mod - D84]"
measurement_units = "nM"
numeric_result = 15.8

[[record]]
residues = "AAGAAGCGAGGAUAUACAUGAGGAUCACCCAUGUAAAAGAAAGAAGGGAAAGAGAAAAGUAGAAGGCGCAAGAA [Hedjkheperre-setpenre Takelot II]"
measurement_units = "nM"
numeric_result = 109

[[record]]
residues = "GAAGAACAUGAGGAUCACCCAUGUCAGGAUAUACAGAAGGGAAUAAUAUAACCUGAAAGUAGAAGGGACAAGAA [Ex 1 May 43]"
measurement_units = "nM"
numeric_result = 46.2

[[record]]
residues = "GAUCAGCUAGGAUAUACAUUAAUCCGAAAUGAGAAGAAAGAACAUGAGGAUCACCCAUGUAGAAGGAGCCAGUA [Usinisat]"
measurement_units = "nM"
numeric_result = 32.1

[[record]]
residues = "AAAGAUGCAGGAUAUACAUGAGGAUCACCCAUGUUAGACCAGAAAUGGGAAAAAGAAAGUAGAAGGGCAUAAAA [Ex 3 May 33]"
measurement_units = "nM"
numeric_result = 119

[[record]]
residues = "AGUAGUACAGGAUAUACAUGAGGAUCACCCAUGUGAGAAUUAAGUGGCGUACCACAAAGUAGAAGGGUACUACA [Mat - Exclusion 3 - JL mod - D38]"
measurement_units = "nM"
numeric_result = 211

[[record]]
residues = "CAGUACUGAGGAUAUACAUGAGGAUCACCCAUGUGGUCAAGCUAGGAAACUAGCAAAUGUAGAAGGCAGUACUG [Ex3: 812]"
measurement_units = "nM"
numeric_result = 35.6

[[record]]
residues = "AAAAAACAUGAGGAUCACCCAUGUAAGGAUAUGUAAAAUAAAAGAAAAAUAAAGAAAAGCAGAAGGUAUAUGUA [JL wbt mod 17]"
measurement_units = "nM"
numeric_result = 24.7

[[record]]
residues = "UAUACGUGAGGAUAUGCGAAUACCACGUAAGACAUACAGACGCAGAAGGCACAUGAGGAUCACCCAUGUGAACC [JR_Exc004_Sub314]"
measurement_units = "nM"
numeric_result = 16.3

[[record]]
residues = "AAAAAAAAAGGAUAUACAGGAGGUAAGGUCGAAAAAAAAAAACAUGAGGAUCACCCAUGUAGAAGGUUUAAAAA [Excls2-VIII]"
measurement_units = "nM"
numeric_result = 30.6

[[record]]
residues = "AGGGAGUAAGGAUAUGCAUAUAAUGAAGAGAAAGAAAAGAAGCAGAAGGUACAUGAGGAUCACCCAUGUAAAAA [milkweed 2]"
measurement_units = "nM"
numeric_result = 22.7

[[record]]
residues = "AGGAGACAUGAGGAUCACCCAUGUUAGGAUAUGAACGAAAUAAAAUAAAAAUAAAAGUUCAGAAGGAACGAAAA [Mat - Exclusion 1 - Eli mod - D10]"
measurement_units = "nM"
numeric_result = 56.6

[[record]]
residues = "AAGAAGUCAGGAUAUCGAAGACUGUCGAAAAGACAGUCGAACGAGAAGGGACAUGAGGAUCACCCAUGUGGAAA [Marsurpial 65% 7]"
measurement_units = "nM"
numeric_result = 112

